Data origin, for the record: patent US4267180A

Tested on: Proteus Vulgaris 1810
Experiment: Minimal Inhibitory Concentration, in vitro
Assay type: cell-based
Parameters: unit not given here

MOLECULE | Minimal Inhibitory Concentration
CC(=O)NCCC(=O)Nc1ccc(-c2ncc(C(=O)N[C@@H](C(=O)N[C@@H]3C(=O)N4[C@@H]3SC(C)(C)[C@@H]4C(=O)O)c3ccc(O)cc3)c(O)n2)cc1 [N-Acetyl-beta-Alanyl] | 0.8
CC1(C)S[C@@H]2[C@H](NC(=O)[C@H](NC(=O)c3cnc(-c4ccc(NC(=O)[C@@H]5CCC(=O)N5)cc4)nc3O)c3ccc(O)cc3)C(=O)N2[C@H]1C(=O)O [5-Oxo-L-Prolyl] | 0.8
CC(=O)N[C@@H](Cc1ccc(O)cc1)C(=O)Nc1ccc(-c2ncc(C(=O)N[C@@H](C(=O)N[C@@H]3C(=O)N4[C@@H]3SC(C)(C)[C@@H]4C(=O)O)c3ccc(O)cc3)c(O)n2)cc1 [N-Acetyl-L-Tyrosyl] | 3.1
